test: Apparent clearance in human microsomes; assay type: ADME, microsome; conditions: liver microsomes, read-out: CLH(app)
parameterMeasured: CLint scaled (mL/min/kg)
Numbers only, in mL/min/kg.

Problem: Query: CLint scaled; subject: Cc1ncc2n1-c1ccc(Cl)cc1C(c1ccccc1F)=NC2
Result: 488

----------
experiment: Cmax in Sprague-Dawley rat at 5 mg/kg, po by LC-MS/MS analysis; assay type: ADME, organism-based; design: dose 5 mg/kg, route oral; conditions: in vivo
parameterMeasured: Cmax (ng/mL)
One number for each entry, in ng/mL.

Problem: Value lookup for Cmax; key = O=c1c2ccccc2oc2c(Cc3ccc4c(c3)OCO4)[nH]c(-c3nccs3)c12
Result: 368

----------
experiment: Oral bioavailability in rat; type: ADME, organism-based; conditions: in vivo
parameterMeasured: bioavailability

Problem: bioavailability for CCCc1nn(C)c2c(=O)[nH]c(-c3cc(S(=O)(=O)N4CCN(C)CC4)ccc3OCC)nc12.O=C(O)CC(O)(CC(=O)O)C(=O)O [SILDENAFIL CITRATE] ?
Result: 41%

----------
test: Oral bioavailability in Sprague-Dawley rat by LC-MS/MS analysis; format: ADME, organism-based; settings: in vivo
parameterMeasured: bioavailability

Problem: Name the reported bioavailability value associated with the compound O=c1c2ccccc2oc2c(Cc3ccc(O)cc3)[nH]c(-c3nccs3)c12
Result: < 10%

----------
molecular target: cAMP and cAMP-inhibited cGMP 3',5'-cyclic phosphodiesterase 10A (Homo sapiens, UniProt Q9Y233)
Sequence (Q9Y233 whole entry): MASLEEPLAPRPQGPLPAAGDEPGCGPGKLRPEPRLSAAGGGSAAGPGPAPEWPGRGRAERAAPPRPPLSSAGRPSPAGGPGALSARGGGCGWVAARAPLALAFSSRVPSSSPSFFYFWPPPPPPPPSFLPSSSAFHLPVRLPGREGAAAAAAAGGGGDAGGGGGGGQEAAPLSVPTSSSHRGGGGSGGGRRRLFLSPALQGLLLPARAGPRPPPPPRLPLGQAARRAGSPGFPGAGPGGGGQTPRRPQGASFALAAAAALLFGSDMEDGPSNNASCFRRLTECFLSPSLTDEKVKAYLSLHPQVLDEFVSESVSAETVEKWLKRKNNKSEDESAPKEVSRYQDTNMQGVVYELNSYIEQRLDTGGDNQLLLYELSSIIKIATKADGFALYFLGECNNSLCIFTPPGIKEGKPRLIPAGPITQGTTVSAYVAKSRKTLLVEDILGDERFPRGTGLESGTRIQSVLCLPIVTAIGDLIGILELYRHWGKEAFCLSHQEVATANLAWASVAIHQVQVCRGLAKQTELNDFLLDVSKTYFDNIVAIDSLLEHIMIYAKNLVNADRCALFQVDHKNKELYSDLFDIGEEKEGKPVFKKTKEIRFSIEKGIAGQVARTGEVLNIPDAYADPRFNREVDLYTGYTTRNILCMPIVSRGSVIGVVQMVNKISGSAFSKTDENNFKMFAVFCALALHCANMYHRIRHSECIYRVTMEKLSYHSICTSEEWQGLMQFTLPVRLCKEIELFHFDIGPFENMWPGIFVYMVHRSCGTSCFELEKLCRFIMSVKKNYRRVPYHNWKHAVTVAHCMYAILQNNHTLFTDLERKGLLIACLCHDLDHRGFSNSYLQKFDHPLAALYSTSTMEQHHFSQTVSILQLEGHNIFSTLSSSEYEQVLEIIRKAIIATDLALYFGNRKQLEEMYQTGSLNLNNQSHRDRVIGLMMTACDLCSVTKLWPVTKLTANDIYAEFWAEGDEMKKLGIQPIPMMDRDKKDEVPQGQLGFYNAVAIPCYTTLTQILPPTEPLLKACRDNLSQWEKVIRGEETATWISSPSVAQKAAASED
parameterMeasured: IC50 (nM)
Answers are plain numbers, in nM.

Problem: For O=c1c2ccccc2oc2c(Cc3ccc4c(c3)OCO4)[nH]c(-c3nccs3)c12 , what is its reported IC50?
Result: 153

----------
target: Dual specificity calcium/calmodulin-dependent 3',5'-cyclic nucleotide phosphodiesterase 1B (Homo sapiens); test: Inhibition of PDE1B (10 to 487 residues) (unknown origin) expressed in Escherichia coli BL21(DE3) using [3H]cAMP or [3H]cGMP as substrate after 15 mins by liquid scintillation counting method
Sequence (Q01064 whole entry, the tested form may be a part): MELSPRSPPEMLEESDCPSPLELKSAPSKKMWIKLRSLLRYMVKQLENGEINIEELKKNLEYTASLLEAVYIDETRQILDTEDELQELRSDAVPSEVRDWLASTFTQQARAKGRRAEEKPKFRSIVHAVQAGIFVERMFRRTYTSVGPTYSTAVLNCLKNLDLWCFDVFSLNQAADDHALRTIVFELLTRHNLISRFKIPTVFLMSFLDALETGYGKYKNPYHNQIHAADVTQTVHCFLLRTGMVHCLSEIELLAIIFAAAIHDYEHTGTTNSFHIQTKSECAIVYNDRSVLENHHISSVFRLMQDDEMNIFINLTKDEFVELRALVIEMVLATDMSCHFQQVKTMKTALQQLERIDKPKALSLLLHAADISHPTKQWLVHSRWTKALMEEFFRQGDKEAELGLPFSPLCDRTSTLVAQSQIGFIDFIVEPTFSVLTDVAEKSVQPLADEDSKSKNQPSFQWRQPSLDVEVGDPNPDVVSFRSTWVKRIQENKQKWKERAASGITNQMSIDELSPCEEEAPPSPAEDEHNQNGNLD
parameterMeasured: IC50

Problem: Quick one: IC50 of O=c1c2ccccc2oc2c(Cc3ccc4c(c3)OCO4)[nH]c(-c3nccs3)c12 ?
Result: > 10 µM

----------
test: AUC (0 to infinity) in Sprague-Dawley rat at […], iv by LC-MS/MS analysis; format: ADME, organism-based; design: dose 2.5 mg/kg, time infinity, route intravenous; conditions: in vivo
parameterMeasured: AUC(0-inf) (ng·h/mL)
Give bare numbers, in ng·h/mL.

Problem: So what's the measured AUC(0-inf) for this one? O=c1c2ccccc2oc2c(Cc3ccc4c(c3)OCO4)[nH]c(-c3nccs3)c12
Result: 1730

----------
experiment: Hepatic clearance in rat liver microsomes; type: ADME, microsome
parameterMeasured: CLhep predicted (mL/min/kg)
Numbers only, in mL/min/kg.

Problem: Look up CLhep predicted: Cc1ncc2n1-c1ccc(Cl)cc1C(c1ccccc1F)=NC2
Result: 53.2

----------
biological target: High affinity cAMP-specific and IBMX-insensitive 3',5'-cyclic phosphodiesterase 8A (Homo sapiens, UniProt O60658)
Sequence (O60658 whole entry): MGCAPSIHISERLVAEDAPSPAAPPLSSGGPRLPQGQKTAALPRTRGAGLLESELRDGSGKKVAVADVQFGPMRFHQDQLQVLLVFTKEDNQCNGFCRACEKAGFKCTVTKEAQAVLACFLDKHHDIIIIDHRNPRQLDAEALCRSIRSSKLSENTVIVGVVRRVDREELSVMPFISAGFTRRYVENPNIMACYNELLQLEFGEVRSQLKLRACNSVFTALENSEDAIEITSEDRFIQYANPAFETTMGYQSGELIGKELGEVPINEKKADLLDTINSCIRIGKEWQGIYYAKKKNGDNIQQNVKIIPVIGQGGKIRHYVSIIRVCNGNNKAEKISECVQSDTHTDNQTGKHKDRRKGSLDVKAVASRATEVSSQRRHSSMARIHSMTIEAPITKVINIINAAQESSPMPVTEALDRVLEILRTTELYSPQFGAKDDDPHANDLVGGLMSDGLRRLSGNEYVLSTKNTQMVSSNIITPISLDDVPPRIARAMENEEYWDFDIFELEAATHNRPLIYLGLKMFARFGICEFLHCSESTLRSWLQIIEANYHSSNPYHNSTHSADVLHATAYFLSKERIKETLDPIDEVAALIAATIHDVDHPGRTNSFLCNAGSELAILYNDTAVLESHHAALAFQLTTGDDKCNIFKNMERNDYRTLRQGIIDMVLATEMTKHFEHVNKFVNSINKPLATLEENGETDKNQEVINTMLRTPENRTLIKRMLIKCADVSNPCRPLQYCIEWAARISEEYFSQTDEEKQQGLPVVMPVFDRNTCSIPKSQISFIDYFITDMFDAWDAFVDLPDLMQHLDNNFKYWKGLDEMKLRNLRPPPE
parameterMeasured: pIC50
Give bare numbers, as −log10 of the molar value.

Problem: # pIC50 lookup, item O=c1c2ccccc2oc2c(Cc3ccc4c(c3)OCO4)[nH]c(-c3nccs3)c12
Result: 5.21

----------
experiment: MRT (0 to t) in Sprague-Dawley rat at 5 mg/kg, po by LC-MS/MS analysis; type: ADME, organism-based; conditions: in vivo
parameterMeasured: MRT last (h)
Answers are plain numbers, in h.

Problem: Sample O=c1c2ccccc2oc2c(Cc3ccc4c(c3)OCO4)[nH]c(-c3nccs3)c12 — what was its MRT last?
Result: 4.76

----------
test: Apparent clearance in rat liver microsomes; type: ADME, microsome; conditions: read-out: CLH(app)
parameterMeasured: CLint scaled
Report field: quantity (unit follows the number).

Problem: // query CLint scaled value for entry Cc1ncc2n1-c1ccc(Cl)cc1C(c1ccccc1F)=NC2
Result: 1040 mL/min/kg

----------
target: Cytochrome P450 2C19 (Homo sapiens, UniProt P33261)
Sequence (P33261 whole entry): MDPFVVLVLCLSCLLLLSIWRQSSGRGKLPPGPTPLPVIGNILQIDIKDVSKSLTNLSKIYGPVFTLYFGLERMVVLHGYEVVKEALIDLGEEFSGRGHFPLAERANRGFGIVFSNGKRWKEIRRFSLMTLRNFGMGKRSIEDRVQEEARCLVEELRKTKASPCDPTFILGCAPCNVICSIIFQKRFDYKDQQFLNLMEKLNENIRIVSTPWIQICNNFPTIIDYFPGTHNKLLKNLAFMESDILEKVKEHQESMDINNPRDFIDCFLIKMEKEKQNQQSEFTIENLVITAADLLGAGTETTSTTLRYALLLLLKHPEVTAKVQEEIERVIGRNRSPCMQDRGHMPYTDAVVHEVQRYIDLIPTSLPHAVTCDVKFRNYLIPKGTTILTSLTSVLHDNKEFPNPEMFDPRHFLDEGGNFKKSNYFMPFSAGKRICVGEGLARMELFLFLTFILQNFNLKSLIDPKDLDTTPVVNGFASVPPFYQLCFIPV
parameterMeasured: IC50

Problem: Which IC50 is reported for this compound? O=c1c2ccccc2oc2c(Cc3ccc4c(c3)OCO4)[nH]c(-c3nccs3)c12
Result: > 20 µM

----------
biological target: cGMP-inhibited 3',5'-cyclic phosphodiesterase 3A (Homo sapiens, UniProt Q14432)
Sequence (Q14432 whole entry): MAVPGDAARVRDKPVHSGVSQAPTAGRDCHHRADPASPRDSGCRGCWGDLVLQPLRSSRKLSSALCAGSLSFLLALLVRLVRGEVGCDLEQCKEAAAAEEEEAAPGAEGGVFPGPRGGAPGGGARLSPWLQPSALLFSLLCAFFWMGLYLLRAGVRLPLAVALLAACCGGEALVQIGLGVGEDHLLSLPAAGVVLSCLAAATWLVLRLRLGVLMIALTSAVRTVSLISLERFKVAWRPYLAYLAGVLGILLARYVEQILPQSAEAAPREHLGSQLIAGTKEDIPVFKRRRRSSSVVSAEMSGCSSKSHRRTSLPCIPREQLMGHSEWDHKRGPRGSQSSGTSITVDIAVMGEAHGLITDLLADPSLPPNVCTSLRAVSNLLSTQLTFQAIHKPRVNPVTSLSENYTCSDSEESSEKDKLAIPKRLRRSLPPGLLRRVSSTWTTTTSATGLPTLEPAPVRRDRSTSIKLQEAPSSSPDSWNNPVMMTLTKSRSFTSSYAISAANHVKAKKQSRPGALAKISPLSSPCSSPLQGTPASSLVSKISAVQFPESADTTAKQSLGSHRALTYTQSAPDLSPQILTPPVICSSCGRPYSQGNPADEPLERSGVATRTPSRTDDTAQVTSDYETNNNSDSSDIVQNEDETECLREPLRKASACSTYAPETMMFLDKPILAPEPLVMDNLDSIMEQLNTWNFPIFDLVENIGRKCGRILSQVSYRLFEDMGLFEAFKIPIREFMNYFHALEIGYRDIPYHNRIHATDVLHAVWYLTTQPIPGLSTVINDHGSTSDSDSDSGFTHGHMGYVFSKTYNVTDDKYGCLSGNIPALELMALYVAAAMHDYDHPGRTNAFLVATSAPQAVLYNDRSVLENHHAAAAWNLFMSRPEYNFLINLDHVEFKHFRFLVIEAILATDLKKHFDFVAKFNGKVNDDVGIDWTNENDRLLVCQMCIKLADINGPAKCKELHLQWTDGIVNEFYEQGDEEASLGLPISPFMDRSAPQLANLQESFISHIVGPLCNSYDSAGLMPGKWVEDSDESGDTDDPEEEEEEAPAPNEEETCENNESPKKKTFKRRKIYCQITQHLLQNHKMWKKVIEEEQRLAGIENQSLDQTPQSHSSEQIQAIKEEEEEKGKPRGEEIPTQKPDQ
pIC50: −log10 of the molar value.
parameterMeasured: pIC50

Problem: Look at this compound and give its reported pIC50. O=c1c2ccccc2oc2c(Cc3ccc4c(c3)OCO4)[nH]c(-c3nccs3)c12
Result: < 5.00

----------
biological target: Cytochrome P450 3A4 (Homo sapiens, UniProt P08684)
Sequence (P08684 whole entry): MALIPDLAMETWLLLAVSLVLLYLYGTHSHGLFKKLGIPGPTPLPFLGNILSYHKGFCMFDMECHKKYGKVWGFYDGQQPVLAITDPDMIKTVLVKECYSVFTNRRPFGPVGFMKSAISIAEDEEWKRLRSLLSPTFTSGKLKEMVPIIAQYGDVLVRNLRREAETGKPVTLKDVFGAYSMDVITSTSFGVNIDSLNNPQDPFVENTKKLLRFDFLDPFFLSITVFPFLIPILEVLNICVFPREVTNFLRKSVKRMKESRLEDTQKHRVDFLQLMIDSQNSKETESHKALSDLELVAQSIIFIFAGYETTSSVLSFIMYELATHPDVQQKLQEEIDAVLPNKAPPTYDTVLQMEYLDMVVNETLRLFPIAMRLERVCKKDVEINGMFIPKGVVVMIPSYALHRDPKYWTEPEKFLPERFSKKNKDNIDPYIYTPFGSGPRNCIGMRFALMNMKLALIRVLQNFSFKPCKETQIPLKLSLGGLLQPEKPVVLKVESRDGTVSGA
pIC50: −log10 of the molar value.
parameterMeasured: pIC50

Problem: Quick check: pIC50 on Cytochrome P450 3A4 (Homo sapiens, UniProt P08684), item O=c1c2ccccc2oc2c(Cc3ccc4c(c3)OCO4)[nH]c(-c3nccs3)c12 ?
Result: < 4.60

----------
test: Acute toxicity in Kunming mouse administered as single oral dose measured up to 2 weeks post dose; details: in vivo
parameterMeasured: MTD at 336 h

Problem: // lookup MTD at 336 h for O=c1c2ccccc2oc2c(Cc3ccc4c(c3)OCO4)[nH]c(-c3nccs3)c12
Result: > 1500 mg/kg

----------
experiment: Hepatic clearance in rat liver microsomes at 0.5 uM; format: ADME, microsome
parameterMeasured: CLhep predicted at 0.5 µM (mL/min/kg)
One number for each entry, in mL/min/kg.

Problem: Find the recorded CLhep predicted at 0.5 µM belonging to O=c1c2ccccc2oc2c(Cc3ccc4c(c3)OCO4)[nH]c(-c3nccs3)c12 and report it.
Result: 35.6

----------
test: Hepatic extraction ratio in human microsomes; format: ADME, microsome; conditions: liver microsomes, read-out: ERH
parameterMeasured: hepatic extraction ratio
Answers are plain numbers.

Problem: Record request: hepatic extraction ratio value, item Cc1ncc2n1-c1ccc(Cl)cc1C(c1ccccc1F)=NC2
Result: 0.96

----------
target: Cytochrome P450 2C9 (Homo sapiens, UniProt P11712)
Sequence (P11712 whole entry): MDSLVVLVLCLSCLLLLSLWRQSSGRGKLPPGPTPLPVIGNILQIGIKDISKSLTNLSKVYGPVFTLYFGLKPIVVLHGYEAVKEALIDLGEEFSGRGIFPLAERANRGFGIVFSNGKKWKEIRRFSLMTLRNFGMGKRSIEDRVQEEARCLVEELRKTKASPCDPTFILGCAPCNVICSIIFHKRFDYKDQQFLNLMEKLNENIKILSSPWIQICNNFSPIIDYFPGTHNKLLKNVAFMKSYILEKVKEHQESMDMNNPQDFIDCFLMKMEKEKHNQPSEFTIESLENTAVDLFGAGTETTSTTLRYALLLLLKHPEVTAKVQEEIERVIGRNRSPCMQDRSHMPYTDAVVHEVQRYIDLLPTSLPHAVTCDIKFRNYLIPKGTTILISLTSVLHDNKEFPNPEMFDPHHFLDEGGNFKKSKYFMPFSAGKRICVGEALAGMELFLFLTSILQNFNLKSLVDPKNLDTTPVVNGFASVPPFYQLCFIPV
parameterMeasured: IC50

Problem: Entry O=c1c2ccccc2oc2c(Cc3ccc4c(c3)OCO4)[nH]c(-c3nccs3)c12 , system Cytochrome P450 2C9 (Homo sapiens, UniProt P11712): what IC50 was measured?
Result: > 25 µM

----------
experiment: Half life in rat liver microsomes at 0.5 uM; format: ADME, microsome
parameterMeasured: half-life at 0.5 µM (min)
Give bare numbers, in min.

Problem: Recorded half-life at 0.5 µM for O=c1c2ccccc2oc2c(Cc3ccc4c(c3)OCO4)[nH]c(-c3nccs3)c12 , please?
Result: 24.7

----------
experiment: AUC (0 to t) in Sprague-Dawley rat at 5 mg/kg, po by LC-MS/MS analysis; format: ADME, organism-based; conditions: in vivo
parameterMeasured: AUC(0-t) (ng·h/mL)
One number for each entry, in ng·h/mL.

Problem: What value of measured AUC(0-t) is listed for O=c1c2ccccc2oc2c(Cc3ccc4c(c3)OCO4)[nH]c(-c3nccs3)c12 ?
Result: 2000

----------
experiment: Hepatic extraction ratio in rat liver microsomes; type: ADME, microsome; details: read-out: ERH
parameterMeasured: hepatic extraction ratio
Give bare numbers.

Problem: Reported hepatic extraction ratio for Cc1ncc2n1-c1ccc(Cl)cc1C(c1ccccc1F)=NC2 : what is it?
Result: 0.95

----------
test: Half life in Sprague-Dawley rat at 5 mg/kg, po by LC-MS/MS analysis; format: ADME, organism-based; conditions: in vivo
parameterMeasured: half-life (min)
Answers are plain numbers, in min.

Problem: Consider the molecule shown here: O=c1c2ccccc2oc2c(Cc3ccc4c(c3)OCO4)[nH]c(-c3nccs3)c12 What is its recorded half-life?
Result: 310

----------
experiment: AUC (0 to infinity) in Sprague-Dawley rat at 5 mg/kg, po by LC-MS/MS analysis; format: ADME, organism-based; set-up: dose 5 mg/kg, time infinity, route oral; settings: in vivo
parameterMeasured: AUC(0-inf)
Please give the number followed by its unit.

Problem: # input compound: O=c1c2ccccc2oc2c(Cc3ccc4c(c3)OCO4)[nH]c(-c3nccs3)c12 ; wanted: its AUC(0-inf)
Result: 2030 ng·h/mL

----------
assay: Hepatic clearance in human microsomes at 0.5 uM; assay type: ADME, microsome; settings: liver microsomes
parameterMeasured: CLhep predicted at 0.5 µM (mL/min/kg)
Numbers only, in mL/min/kg.

Problem: Consider the compound O=c1c2ccccc2oc2c(Cc3ccc4c(c3)OCO4)[nH]c(-c3nccs3)c12 and give its measured CLhep predicted at 0.5 µM.
Result: 10.9

----------
UniProtKB O76074 data, read-out IC50

# example entries with known answers
O=c1c2ccccc2oc2c(Cc3ccc(O)cc3)[nH]c(-c3ccc(Cl)cn3)c12 ... 50 nM
CC(C)N1CCN(C(=O)c2[nH]c(Cc3ccc(O)cc3)c3oc4ccccc4c(=O)c23)CC1 ... > 100 nM

I have 5 compounds here; please give me IC50 for each one.
1. O=c1c2ccccc2oc2c(Cc3ccc(O)cc3)[nH]c(-c3ccncc3Cl)c12
2. COC(=O)c1[nH]c(Cc2ccc(O)cc2)c2oc3ccccc3c(=O)c12
3. Cc1ccc(-c2[nH]c(Cc3ccc(O)cc3)c3oc4ccccc4c(=O)c23)cc1
4. O=c1c2ccccc2oc2c(Cc3ccc(O)cc3)[nH]c(-c3ccncc3)c12
5. O=c1c2ccccc2oc2c(Cc3ccc(O)cc3)[nH]c(-c3cccnc3)c12

Result:
1. > 100 nM
2. 31 nM
3. > 100 nM
4. > 100 nM
5. 77 nM
